- MEASUREMENT_TARGET: CYP17 (human testicular microsome) (Homo sapiens, UniProt P05093)
- Construct: using microsomal fraction from human testis (Celsis Cat #S00110) as the enzyme source; tissue Celsis S00110; host or cells: human testis microsomal fraction
- Sequence (P05093 whole entry): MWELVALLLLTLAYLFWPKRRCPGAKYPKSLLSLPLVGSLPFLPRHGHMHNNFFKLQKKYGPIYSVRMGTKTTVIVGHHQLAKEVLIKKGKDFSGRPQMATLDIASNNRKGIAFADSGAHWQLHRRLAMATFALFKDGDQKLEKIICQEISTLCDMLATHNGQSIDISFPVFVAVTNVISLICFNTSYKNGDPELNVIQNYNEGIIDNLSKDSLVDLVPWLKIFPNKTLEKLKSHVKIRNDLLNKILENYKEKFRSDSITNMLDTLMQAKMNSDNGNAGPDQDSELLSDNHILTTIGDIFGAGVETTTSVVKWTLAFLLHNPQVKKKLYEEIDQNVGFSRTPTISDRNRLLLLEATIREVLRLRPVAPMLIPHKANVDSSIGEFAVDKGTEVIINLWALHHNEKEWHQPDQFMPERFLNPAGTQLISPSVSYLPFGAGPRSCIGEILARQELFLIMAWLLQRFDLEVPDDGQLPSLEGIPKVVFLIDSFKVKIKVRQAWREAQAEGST
- TEST_METHOD_NOTES: CYP17 enzymatic assay (% inhibition at 1 nM) (Biological Example 12)
- Format: biochemical
- MEASUREMENT_PARAMETERS: compound at 1 nM, read-out: CYP17 enzymatic assay % inhibition at 1 nM (Biological Example No. 12)
OBSERVATION_TYPE: inhibition at 0.001 µM

Completed entries (count: 3):
COMPOUND	EXPERIMENTAL_VALUE
CC(C)(C)NC(=O)O[C@H]1CC[C@@]2(C)C(=CC[C@H]3C4=CC=C(c5cccnc5)[C@@]4(C)CC[C@@H]32)C1	10 to 50%
C[C@]12CCC(NC(=O)c3nccs3)CC1=CCC1C2CC[C@]2(C)C(n3ccnc3)=CCC12 (stereo partly shown)	10 to 50%
CC(=O)N[C@@H]1CC[C@@]2(C)C(=CC[C@@H]3[C@@H]2CC[C@]2(C)C(c4cncc(C(F)(F)F)c4)=CC[C@@H]32)C1	10 to 50%

Input line: I'd like to know its inhibition at 0.001 µM. The compound in question is Cc1cncc(C2=CC=C3[C@@H]4CCC5CC(=O)NCC[C@]5(C)[C@H]4CC[C@]23C)c1 (stereo partly shown)
Output line: > 50%

* * *

# half-life at 1 μM listing for each entry below
- TEST_METHOD_NOTES: Human liver microsome stability assay (Biological Example 8b)
- MEASUREMENT_PARAMETERS: liver microsomes, pH 7.4

These recorded examples may help you get a feel for the data.
MOLECULE	half-life at 1 μM
C=C1C[C@@H]2[C@H](CC[C@]3(C)C(c4cncc(F)c4)=CC[C@@H]23)[C@@]2(C)C=CC(=O)C=C12 [Compound 320]	1 to 50 min
C[C@]12CCNC(=O)C[C@@H]1CC[C@@H]1[C@@H]2CC[C@]2(C)C(n3ccnn3)=CC[C@@H]12 [Compound 137]	> 50 min
C[C@]12CC[C@H]3[C@@H](CC[C@H]4CC(=O)CC[C@@]43C)C1=CC=C2n1ccnc1 [Compound 171]	1 to 50 min
C[C@]12CCC(F)CC1=CC[C@@H]1[C@@H]2CC[C@]2(C)C(c3cncc(F)c3)=CC[C@@H]12 (stereo partly shown) [Compound 401]	> 50 min
C[C@]12CC[C@H]3[C@@H](C=CC4=CC(=O)CC[C@@]43C)C1=CC=C2c1cccnc1 [Compound 289]	1 to 50 min

Input line: Return reported half-life at 1 μM; argument: C[C@]12CCC3C(CC=C4C[C@H](O)CC[C@@]43C)C1=CC=C2c1cccnc1 (stereo partly shown) [Compound 199]
Output line: 1 to 50 min

* * *

- MEASUREMENT_TARGET: CYP17 (human testicular microsome) (Homo sapiens, UniProt P05093)
- Construct: using microsomal fraction from human testis (Celsis Cat #S00110) as the enzyme source; tissue Celsis S00110; host or cells: human testis microsomal fraction
- TEST_METHOD_NOTES: CYP17 enzymatic assay (% inhibition at 1 nM) (Biological Example 12)
- Assay type: biochemical
- MEASUREMENT_PARAMETERS: compound at 1 nM, read-out: CYP17 enzymatic assay % inhibition at 1 nM (Biological Example No. 12)
This listing pairs molecules with measured inhibition at 0.001 µM.

See these solved cases before continuing.
MOLECULE	OBSERVATION_TYPE	EXPERIMENTAL_VALUE
C[C@]12CCC3C(CC(O)C45CC4CC[C@]35C)C1=CC=C2c1cccnc1 (stereo partly shown)	inhibition at 0.001 µM	> 50%
CCOc1cncc(C2=CC[C@H]3[C@@H]4CC[C@H]5C[C@@H](OC)CC[C@]5(C)[C@H]4CC[C@]23C)c1	inhibition at 0.001 µM	10 to 50%

Input line: So what inhibition at 0.001 µM did CC1(C)C2=CC[C@@H]3[C@H](CC[C@]4(C)C(c5cccnc5)=CC[C@@H]34)[C@@]2(C)CCC1O (stereo partly shown) get with CYP17 (human testicular microsome) (Homo sapiens, UniProt P05093)?
Output line: < 10%

Input line: // lookup inhibition at 0.001 µM | system=CYP17 (human testicular microsome) (Homo sapiens, UniProt P05093) | key= CCc1ccncc1C1=CC[C@H]2[C@@H]3CC[C@H]4CNC(=O)CC[C@]4(C)[C@H]3CC[C@]12C
Output line: < 10%

Input line: // lookup inhibition at 0.001 µM | system=CYP17 (human testicular microsome) (Homo sapiens, UniProt P05093) | key= C[C@]12CC[C@@H](NC(=O)C3CCC3)CC1=CCC1C2CC[C@]2(C)C(c3cccnc3)=CCC12 (stereo partly shown)
Output line: > 50%

Sourced from patent US20130252930A1
